- Target Under Test: GCN2 kinase (Homo sapiens)
- Assay Procedure: GCN2 enzyme inhibition assay (Transcreener ADP2 fluorescence polarization)
- Type: biochemical
- Conditions: Enzyme activity for compounds of Formula IV; Ki(app), 280 μM ATP, 25° C.
pKi: −log10 of the molar value.
Documented pKi across a set of molecules
Observed Property: pKi

CC1CCCCN1c1ccnc(-c2cnc3cnc(C(F)(F)F)cn23)n1 (stereo not shown)	7.00 to 8.00
CC(C)(C)n1cc(C(=O)N[C@H]2CCCN(c3ccnc(-c4cnc5cnc(C(F)(F)F)cn45)n3)C2)nn1	< 6.00
FC(F)(F)c1cn2c(-c3nccc(N4CCOC(c5cccnc5)C4)n3)cnc2cn1 (stereo not shown)	6.00 to 7.00
FC(F)(F)c1cn2c(-c3nccc(N4CCCC(c5ncccn5)C4)n3)cnc2cn1 (stereo not shown)	6.00 to 7.00
CC1CN(c2ccnc(-c3cnc4cnc(Cl)cn34)n2)CC(c2cn[nH]c2)O1 (single isomer, unassigned) [IV-216]	> 8.00
C[C@H]1[C@H](c2cn[nH]c2)OCCN1c1ccnc(-c2cnc3cnc(Br)cn23)n1 (racemic)	7.00 to 8.00
NC(=O)C1CCCN(c2ccnc(-c3cnc4cnc(C(F)F)cn34)n2)C1 (stereo not shown)	7.00 to 8.00
CC1CC(C(N)=O)C(C)N(c2ccnc(-c3cnc4cnc(C(F)(F)F)cn34)n2)C1 (single isomer, unassigned) [IV-500]	6.00 to 7.00
CS(C)(=O)=NC1CCCN(c2ccnc(-c3cnc4cnc(C(F)F)cn34)n2)C1 (stereo not shown)	6.00 to 7.00
Cc1noc([C@@H]2CN(c3ccnc(-c4cnc5cnc(C(F)(F)F)cn45)n3)C[C@H](C)O2)n1	6.00 to 7.00
CC1C(c2cn[nH]c2)OCCN1c1ccnc(-c2cnc3cnc(Br)cn23)n1 (single isomer, unassigned) [IV-329]	7.00 to 8.00
NC(=O)c1cn2c(-c3cccc(N4CCN5C(=O)NCC5C4)n3)cnc2cn1 (stereo not shown)	6.00 to 7.00
C[C@H]1CN(c2ccnc(-c3cnc4cnc(C(F)(F)F)cn34)n2)[C@@H](C)[C@@H](c2cn[nH]c2)N1	> 8.00
Fc1n[nH]cc1C1CCCN(c2ccnc(-c3cnc4cnc(C(F)(F)F)cn34)n2)C1 (single isomer, unassigned) [IV-492]	> 8.00
CN(C1CCCN(c2ccnc(-c3cnc4cnc(C(F)F)cn34)n2)C1)S(C)(=O)=O (stereo not shown)	6.00 to 7.00
Cc1nc(C2=CCCN(c3ccnc(-c4cnc5cnc(Br)cn45)n3)C2)c[nH]1	> 8.00

----------
- Target Under Test: GCN2 kinase (Homo sapiens, UniProt Q9P2K8)
- Sequence (Q9P2K8 whole entry): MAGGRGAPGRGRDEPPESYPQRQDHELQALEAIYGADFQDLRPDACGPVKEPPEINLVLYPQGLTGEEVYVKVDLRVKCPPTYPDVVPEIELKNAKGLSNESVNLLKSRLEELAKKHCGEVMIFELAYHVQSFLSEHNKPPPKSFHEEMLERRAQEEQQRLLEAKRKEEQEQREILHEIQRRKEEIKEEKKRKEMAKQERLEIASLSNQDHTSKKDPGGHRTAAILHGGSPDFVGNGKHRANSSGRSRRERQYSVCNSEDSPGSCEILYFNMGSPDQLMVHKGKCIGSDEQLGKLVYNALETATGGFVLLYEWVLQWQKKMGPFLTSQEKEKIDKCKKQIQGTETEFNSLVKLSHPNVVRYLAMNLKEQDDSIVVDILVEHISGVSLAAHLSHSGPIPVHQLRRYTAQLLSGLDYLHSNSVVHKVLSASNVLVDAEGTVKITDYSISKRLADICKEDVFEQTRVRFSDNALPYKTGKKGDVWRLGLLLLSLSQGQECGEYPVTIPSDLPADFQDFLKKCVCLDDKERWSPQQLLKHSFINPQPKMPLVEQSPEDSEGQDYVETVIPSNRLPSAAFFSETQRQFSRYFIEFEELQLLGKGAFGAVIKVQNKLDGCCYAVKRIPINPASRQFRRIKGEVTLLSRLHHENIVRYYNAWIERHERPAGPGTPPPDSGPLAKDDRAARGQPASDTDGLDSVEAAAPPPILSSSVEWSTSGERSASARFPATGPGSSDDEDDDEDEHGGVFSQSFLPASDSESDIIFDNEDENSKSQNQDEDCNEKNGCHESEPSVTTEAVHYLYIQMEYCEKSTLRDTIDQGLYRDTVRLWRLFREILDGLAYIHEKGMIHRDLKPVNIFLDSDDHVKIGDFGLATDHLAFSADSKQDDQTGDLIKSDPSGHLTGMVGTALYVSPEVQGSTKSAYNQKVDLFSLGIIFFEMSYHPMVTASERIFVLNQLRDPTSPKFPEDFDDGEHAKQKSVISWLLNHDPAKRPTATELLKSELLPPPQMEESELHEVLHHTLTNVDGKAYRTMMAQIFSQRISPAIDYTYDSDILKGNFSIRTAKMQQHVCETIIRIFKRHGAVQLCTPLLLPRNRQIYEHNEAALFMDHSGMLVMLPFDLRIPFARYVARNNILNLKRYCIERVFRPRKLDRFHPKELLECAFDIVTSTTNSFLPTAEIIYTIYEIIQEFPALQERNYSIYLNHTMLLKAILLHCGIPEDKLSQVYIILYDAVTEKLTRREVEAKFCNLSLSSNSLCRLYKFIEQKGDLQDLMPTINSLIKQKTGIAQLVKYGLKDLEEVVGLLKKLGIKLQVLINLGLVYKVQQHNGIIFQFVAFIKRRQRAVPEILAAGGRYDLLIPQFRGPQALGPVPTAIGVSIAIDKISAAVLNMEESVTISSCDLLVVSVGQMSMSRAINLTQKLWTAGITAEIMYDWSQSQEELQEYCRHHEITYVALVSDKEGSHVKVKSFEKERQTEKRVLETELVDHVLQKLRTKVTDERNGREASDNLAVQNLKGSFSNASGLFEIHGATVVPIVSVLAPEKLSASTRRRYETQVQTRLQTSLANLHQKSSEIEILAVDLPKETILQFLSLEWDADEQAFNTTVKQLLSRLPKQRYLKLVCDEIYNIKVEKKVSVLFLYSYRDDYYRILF
- Assay Procedure: GCN2 enzyme inhibition assay (Transcreener ADP2 fluorescence polarization)
- Type: biochemical
- Conditions: Enzyme activity for compounds of Formula IV; Ki(app), 280 μM ATP, 25° C.
The entries below come with measured Ki values attached.
Observed Property: Ki

NC(=O)c1cn2c(-c3cccc(N4CCCCC4)n3)cnc2cn1	10 to 100 nM
CC(=O)N1CCN(c2ccnc(-c3cnc4cnc(-c5cn(C)nc5C)cn34)n2)CC1	100 to 1000 nM
NC(=O)c1cn2c(-c3cccc(N4CCN(C(=O)C5CC5)CC4)n3)cnc2cn1	100 to 1000 nM
NC(=O)c1cn2c(-c3cccc(N4CCC(CO)CC4)n3)cnc2cn1	10 to 100 nM
CP(C)(=O)C1CC(c2cn[nH]c2)CN(c2ccnc(-c3cnc4cnc(C(F)(F)F)cn34)n2)C1 (single isomer, unassigned) [IV-633]	10 to 100 nM
